# experimental-system: HLA-B*40:01
# method-notes: IEDB peptide-MHC binding, purified MHC/competitive/radioactivity; filed as Kd, often an IC50 or EC50 that approximates it; bounds were set here for any values at or beyond the usual limits of such assays
# test-conditions: source organism: SARS coronavirus Tor2
pKd: −log10 of the molar value.
value-kind: pKd

seq-string | value-kind | relation | experimental-result
KETSYTTTI | pKd | = | 7.68
RERVNINIV | pKd | = | 4.97
QEAYYRARA | pKd | = | 4.70
QESLTTTSTA | pKd | = | 4.99
VESSSKLWA | pKd | ≤ | 4.37
ADYSVLYNST | pKd | ≤ | 4.16
NECAQVLSEM | pKd | = | 6.10
GDRWFLNRFT | pKd | ≤ | 4.16
LEQWNLVIGF | pKd | = | 5.40
QEIQLLAAVG | pKd | = | 5.70

###

# experimental-system: HLA-A*69:01
# method-notes: IEDB peptide-MHC binding, purified MHC/competitive/fluorescence; filed as Kd, often an IC50 or EC50 that approximates it; bounds were set here for any values at or beyond the usual limits of such assays
# test-conditions: source organism: Entamoeba histolytica HM-1:IMSS
pKd: −log10 of the molar value.
value-kind: pKd

seq-string | experimental-system | value-kind | experimental-result
KVSVGSYFC | HLA-A*69:01 | pKd | ≤ 4.70

###

# experimental-system: HLA-A*03:01
# method-notes: IEDB peptide-MHC binding, purified MHC/competitive/fluorescence; filed as Kd, often an IC50 or EC50 that approximates it; bounds were set here for any values at or beyond the usual limits of such assays
# test-conditions: source organism: Staphylococcus aureus subsp. aureus N315
pKd: −log10 of the molar value.
value-kind: pKd

seq-string | experimental-system | experimental-result
VILNYIPVL | HLA-A*03:01 | ≤ 4.70

###

# experimental-system: HLA-A*24:02
# method-notes: IEDB peptide-MHC binding, purified MHC/competitive/radioactivity; filed as Kd, often an IC50 or EC50 that approximates it; bounds were set here for any values at or beyond the usual limits of such assays
# test-conditions: source organism: Mammarenavirus machupoense

seq-string | experimental-system | Kd
HCALLDCIMY | HLA-A*24:02 | ≥ 70.3 µM

###

# experimental-system: HLA-A*31:01
# method-notes: IEDB peptide-MHC binding, purified MHC/direct/fluorescence; filed as Kd, often an IC50 or EC50 that approximates it; bounds were set here for any values at or beyond the usual limits of such assays
# test-conditions: source organism: Campylobacter jejuni RM1221
value-kind: Kd

seq-string | experimental-system | value-kind | experimental-result
KNDAVYIGY | HLA-A*31:01 | Kd | ≥ 20 µM

###

# experimental-system: HLA-A*02:01
# method-notes: IEDB peptide-MHC binding, purified MHC/direct/fluorescence; filed as Kd, often an IC50 or EC50 that approximates it; bounds were set here for any values at or beyond the usual limits of such assays
# test-conditions: source organism: Giardia lamblia ATCC 50803

seq-string | Kd
IPRQWHPFA | ≥ 20 µM
LERIKANIF | ≥ 20 µM
HSSVAGGLW | ≥ 20 µM

###

# experimental-system: HLA-A*02:02
# method-notes: IEDB peptide-MHC binding, purified MHC/competitive/radioactivity; filed as Kd, often an IC50 or EC50 that approximates it; bounds were set here for any values at or beyond the usual limits of such assays
# test-conditions: source organism: Homo sapiens
pKd: −log10 of the molar value.

seq-string | pKd
NLPIYSEEI | 7.11
